# koff listing for each entry below
# tgt: T1, Human C5 (human, UniProt P01031 19-1676)
# T1 construct: The natural protein has a beta and an alpha chain; also called complement factor 5; complement component 5
# methodNotes: SPR, mAb captured by anti-hFc, 37C
Field format: number, assumed s⁻¹, no unit text.

Please review the entries below; each comes with its answer.
[
  {
    "binder": "H4H12166P7 (antibody, human IgG4, V domains shown, human IgG4 Fc with S108P hinge mutation) VH: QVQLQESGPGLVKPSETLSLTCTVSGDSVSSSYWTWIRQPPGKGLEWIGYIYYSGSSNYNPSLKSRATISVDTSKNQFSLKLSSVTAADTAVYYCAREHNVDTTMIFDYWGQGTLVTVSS VL: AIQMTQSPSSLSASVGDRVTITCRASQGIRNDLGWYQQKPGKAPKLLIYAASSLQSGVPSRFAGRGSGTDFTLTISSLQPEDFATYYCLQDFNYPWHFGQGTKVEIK",
    "koff, s⁻¹": 0.00258
  },
  {
    "binder": "H4H12167P (antibody, human IgG4, V domains shown) VH: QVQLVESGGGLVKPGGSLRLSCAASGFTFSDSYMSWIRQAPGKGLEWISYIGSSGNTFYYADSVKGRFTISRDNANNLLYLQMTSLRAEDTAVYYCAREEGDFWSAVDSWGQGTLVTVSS VL: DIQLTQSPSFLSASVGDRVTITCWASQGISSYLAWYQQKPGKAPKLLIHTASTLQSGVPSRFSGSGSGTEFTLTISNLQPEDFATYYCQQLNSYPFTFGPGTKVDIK",
    "koff, s⁻¹": 0.000381
  }
]

Now examine the next entry.
Q: What value of measured koff is listed for H4H12169P (antibody, human IgG4, V domains shown) VH: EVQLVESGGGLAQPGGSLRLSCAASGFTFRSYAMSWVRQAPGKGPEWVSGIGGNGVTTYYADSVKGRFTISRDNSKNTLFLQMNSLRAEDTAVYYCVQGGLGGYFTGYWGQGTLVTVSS VL: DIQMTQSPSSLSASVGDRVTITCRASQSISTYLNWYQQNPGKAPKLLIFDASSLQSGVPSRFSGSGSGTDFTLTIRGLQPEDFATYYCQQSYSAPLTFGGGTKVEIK ?
A: 0.000352
